- experiment: Serum testosterone pharmacokinetics after transmucosal (OralJect needleless syringe) or subcutaneous delivery
- Format: in vivo, female New Zealand White rabbit
- details: rabbit, serum; OralJect transmucosal, 2.0 mg, in all animals
reported property: Tmax (min)

>>> df
                           structure_smiles  reported_property  reported_value
0  C[C@]12CC[C@H]3[C@@H](CCC4=CC(=O)CC[C@@]43C)[C@@H]1CC[C@@H]2O               Tmax              30

###

- experiment: Serum testosterone pharmacokinetics after transmucosal (OralJect needleless syringe) or subcutaneous delivery
- Format: in vivo, female New Zealand White rabbit
- details: rabbit, serum, sc, 2 mg, subcutaneous injection, 2.0 mg suspension in 35% polyvinylpyrrolidone C-30 in water, rabbit; read-out: Cmax (mean maximum serum concentration)
reported property: Cmax (nM)

In [3]: df
Out[3]:
                           structure_smiles  reported_property  reported_value
0  C[C@]12CC[C@H]3[C@@H](CCC4=CC(=O)CC[C@@]43C)[C@@H]1CC[C@@H]2O               Cmax            34.8

###

- experiment: Serum testosterone pharmacokinetics after transmucosal (OralJect needleless syringe) or subcutaneous delivery
- Format: in vivo, female New Zealand White rabbit
- details: rabbit, serum, sc, 2 mg, subcutaneous injection, 2.0 mg, rabbit; read-out: Cmax range
reported property: Cmax

>>> print(df.to_string())
                           structure_smiles   reported_value
0  C[C@]12CC[C@H]3[C@@H](CCC4=CC(=O)CC[C@@]43C)[C@@H]1CC[C@@H]2O  26.9 to 55.2 nM
